Listing of entries alongside the reported growth.
Test system: SK-MEL-2 melanoma
Assay: NCI-60 one-dose screen, 48 h (100 = growth as untreated, 0 = no growth, -100 = all killed)
Conditions: 10 µM unless noted
Description: Growth inhibition of the SK-MEL-2 human tumor cell line is measured as a screen for anti-cancer activity. Cells are grown in 96 well plates and exposed to the test compound for 48 hours. Compounds are tested at a single concentration, which is 10^-5 M for most compounds. The reported endpoint is percent growth (GI% or GIPRCNT), where numbers from 0 - 100% represent growth inhibition, and numbers from -100% - 0 represent cell death. For example, a value of 40 represents 60% growth inhibition. […]
Compounds without any hit were thinned out: in the full panel of roughly 83,000, 20% have a hit.

COMPOUND	SYSTEM TESTED	growth [%]
CNC(=O)c1cc(Oc2ccc3c(c2)sc2nc(-c4cc(OC)c(OC)c(OC)c4)cn23)ccn1	SK-MEL-2 melanoma	54.3
O=C1CNC(c2ccccc2)C(c2ccccc2)N1 (stereo not drawn)	SK-MEL-2 melanoma	94.7
Cc1ccc(C2=Nc3c(N)ncnc3NC(c3ccc4c(c3)OCO4)C2)cc1 (stereo not drawn)	SK-MEL-2 melanoma	61.8
CCSc1nc(NC)c2cc(-c3ccc(C(F)(F)F)cc3)ccc2n1	SK-MEL-2 melanoma	98.2
CCCCCC(=O)OCC(=O)O[C@@H]1C[C@]2(C(C)C)O[C@@]1(C)[C@@H]1CC[C@@H](C)[C@H]1[C@@H]2OC(=O)/C=C/c1ccccc1	SK-MEL-2 melanoma	94
CC1(c2ccccc2O)NN=C(/N=C/c2cccc([N+](=O)[O-])c2)N1C(Cc1c[nH]c2ccccc12)C(=O)O (stereo not drawn)	SK-MEL-2 melanoma	87.8
CCCC(O)Cn1ncc(C(=O)OCC)c1NC(=O)NCc1ccccc1F (stereo not drawn)	SK-MEL-2 melanoma	74.3
COc1ccc(C2=Nc3c/c(=C\c4c(O)[nH]c5ccc(Cl)cc45)ccc3=N2)cc1	SK-MEL-2 melanoma	20.1
Nc1c(C(=O)Nc2ccccc2Cl)sc2nc3c(cc12)C(O)CCC3 (stereo not drawn)	SK-MEL-2 melanoma	36.5
CN1C(=O)/C(=C/c2cn(-c3ccccc3)nc2-c2ccccc2)SC1=S	SK-MEL-2 melanoma	107
N#CC1=C(N)Oc2c(sc3c(Br)cccc23)C1c1ccc(F)cc1 (stereo not drawn)	SK-MEL-2 melanoma	37
O=S(=O)(NCCNc1nccc(-c2c(-c3cccc(F)c3)nc3occn23)n1)c1ccc(Br)cc1	SK-MEL-2 melanoma	103
C/C(=N/O)c1ccc(F)cc1	SK-MEL-2 melanoma	7.9
